The reader will find reported TGI values listed item by item below.
Test system: COLO 205 colon
METHOD: NCI tumour cell line growth inhibition, 48 h
VALUE KIND: TGI

1. O=C(O)C1=NN(c2ccc(S(=O)(=O)O)cc2)C2(C1)SCC(=O)N2c1nc2ccccc2s1 (stereo unspecified) : > 100 µM
2. N#CC(c1ccccc1)N(CCOCCOCCN(C(=O)c1cccc2ccccc12)C(C#N)c1ccccc1)C(=O)c1cccc2ccccc12 (stereo unspecified) : > 100 µM
3. COc1cc2c(cc1OC)-c1cc3ccc(OC)c(OC)c3c[n+]1CC2 : > 100 µM
4. Fc1cccc(-c2[nH]nc3nc(Nc4cccnc4)sc23)c1 : > 100 µM
5. CCCCCC/C=C1\CCC(CN(C)C)C1=O (stereo unspecified) : 8.4 µM
6. Cc1ccc(NC(=O)c2cc3ccccc3cc2O)c(C)c1.Cc1ccc(NC(=O)c2cc3ccccc3cc2[O-])c(C)c1.[Ni+2] : 24.6 µM
7. Nc1ncnc2c1ncn2C1CC(OC2CCCCO2)C(CO)O1 (stereo unspecified) : > 100 µM
8. CC(C)C1COC(c2ccc3ccccc3c2-c2c(O[Si](C)(C)C(C)(C)C)ccc3ccccc23)=N1 (stereo unspecified) : 33.6 µM
9. CCN(CC)C(=S)SS(=O)(=O)c1ccc(NC(C)=O)cc1 : > 72.1 µM
10. C[C@@H]1OCC2(CCN(c3cnc(Sc4ccnc(N)c4Cl)c(N)n3)CC2)[C@@H]1N : > 100 µM
11. COc1cc2c(cc1OC)C(=O)/C(=C/c1ccc([N+](=O)[O-])cc1)CC2 : > 10 µM
12. CSC1(CC(=O)N2CCCCC2)C(=O)Nc2ccccc21 (stereo unspecified) : > 100 µM
13. CC1=C2CN(C(=O)OCC(C)C)CCC2C2=C(C(=O)c3ccccc3C2=O)C1C (stereo unspecified) : > 10 µM
14. Cc1cc2nc(C(Cl)Cl)nc(-c3ccccc3)n2n1 : 4.56 µM
15. O=C(Nc1ccc(Cl)cc1)NS(=O)(=O)c1c(-c2ccccc2)oc2ccccc2c1=O : > 100 µM
16. CCOP(=O)(OCC)C(F)(F)Cc1cnc(C)c2c1COC(C)(C)O2 : > 10 µM
17. COC(=O)N/N=C(/Cc1occc(=O)c1O)C(=O)Nc1ccc([N+](=O)[O-])cc1[N+](=O)[O-] : > 100 µM
18. CCOC(=O)N1C=CC(=C2C(=C3C=CN(C(=O)OCC)C=C3)C(=C3C=CN(C(=O)OCC)C=C3)C2=C2C=CN(C(=O)OCC)C=C2)C=C1 : > 100 µM
19. O=[N+]([O-])c1ccc(C(=Nc2ccccc2)SSC(=Nc2ccccc2)c2ccc([N+](=O)[O-])o2)o1 : 2.44 µM
20. COc1ccc(C(SCC(N)C(=O)O)(c2ccc(OC)cc2)c2ccc(OC)cc2)cc1 (stereo unspecified) : 17 µM
21. NC(=O)OCc1c(-c2ccccc2)nn(-c2ccccc2)c1COC(N)=O : > 100 µM
22. Cc1ccc(C2SCC(=O)N2NC(=O)c2ccncc2)s1 (stereo unspecified) : > 100 µM
23. FC(F)(F)c1nc(-c2ccccc2)oc1Sc1oc(-c2ccccc2)nc1C(F)(F)F : > 100 µM
24. CC(C)c1cccc(C(C)C)c1NC(=O)CCC(=O)NN : 36.1 µM
25. CCc1ccccc1NC(=O)C(=O)CC(=O)c1sc(Nc2ccccc2Cl)nc1C : 52.3 µM
26. O=C(/C=C/c1ccc2c(c1)OCO2)CC(=O)/C=C/c1ccc2c(c1)OCO2 : > 100 µM
27. COc1ccc(C(c2ccc3c(c2)OCO3)N2C(=O)CCC2C(=O)O)cc1 (stereo unspecified) : > 100 µM
28. Nc1nc(=Nc2ccccc2)ss1 : > 100 µM
29. NC(CC(=O)O)(Cc1ccccc1)C(=O)O (stereo unspecified) : > 100 µM
30. CCOC(=O)c1cc2cc(C)cc(C(=O)c3ccc([N+](=O)[O-])cc3)c2[nH]1 : > 100 µM
31. O=C(O)c1ccccc1Nc1ccc2nnc(-c3ccncc3)n2n1 : 30.8 µM
32. O=C(Cc1ccccc1)NS(=O)(=O)c1ccccc1 : > 100 µM
33. COc1ccc(C)cc1Nc1nnc(-c2ccc(N)cc2)s1 : > 100 µM
34. CC1(O)Oc2ccc3ccccc3c2C=C1C(N)=O (stereo unspecified) : > 100 µM
35. O=C(NCCCCCCNC(=O)OCc1ccc2c(Cl)cc(Cl)c(O)c2n1)OCc1ccc2c(Cl)cc(Cl)c(O)c2n1 : 2.19 µM
36. Cc1ccc2c(c1)C=CC(C#N)N2C(=O)Oc1ccccc1 (stereo unspecified) : 70.1 µM
37. COC(=O)c1ccc(NCC2=CC(=O)C=CC2=O)cc1 : 8.67 µM
38. CCOC(=O)c1cc(OC(=O)CC)c2c(OC)ccc(OC)c2c1 : > 100 µM
39. O=c1[nH]c2cc([N+](=O)[O-])ccc2nc1/C=C(\O)c1ccc(Cl)cc1 : 78.5 µM
40. Cn1nc2ccccc2cc1=O : > 100 µM
41. C=C(C)[C@@H]1CC[C@]2(C(N)=O)CC[C@]3(C)[C@H](CC[C@@H]4[C@@]5(C)C/C(=C/c6cccnc6)[C@H](O)C(C)(C)[C@@H]5CC[C@]43C)[C@@H]12 : 12.4 µM

* * *

System: A549 NSCLC
METHOD: NCI tumour cell line growth inhibition, 48 h
Items are presented alongside their recorded TGI.
VALUE KIND: TGI

1) COc1ccc(C2C(C=O)C(N3CCN(C)CC3)=Nc3nc4ccccc4n32)cc1 (stereo not given) : 38.5 µM
2) CC(C)c1ccc2nc3ccc(C(=O)NCCN4CCN(c5ccccc5)CC4)cn3c(=O)c2c1 : > 100 µM
3) CCOC(=O)c1cc(C#N)[nH]c1-c1ccsc1 : > 100 µM
4) N#C[S-].[Ce+3].c1cnc2c(c1)ccc1cccnc12.c1cnc2c(c1)ccc1cccnc12.c1cnc2c(c1)ccc1cccnc12 : 10.1 µM
5) COc1ccc(C2=NN(C(=O)c3cccnc3)C(O)(c3cc(F)c(Cl)cc3Cl)C2)cc1OC (stereo not given) : > 100 µM
6) COC(=O)C1=C(C)N(NC(N)=O)C(C)(O)C12CCOC2=O (stereo not given) : > 100 µM
7) O=C(Cc1ccccc1)NS(=O)(=O)c1ccccc1 : > 100 µM
8) COc1ccccc1NC(=O)C(CC(C(=O)Nc1ccccc1OC)/C(C)=N/NC(=O)c1ccccc1O)/C(C)=N/NC(=O)c1ccccc1O (stereo not given) : > 100 µM
9) C[N+](C)(CCO)CCN1c2ccccc2Sc2ccccc21 : > 10 µM
10) Cc1cc2nc(C(Cl)Cl)nc(-c3ccccc3)n2n1 : 6.45 µM
11) COC(=O)Cc1cc(=O)n2c([nH]c3ccccc32)c1C#N : > 100 µM
12) C[CH2][Sn]([CH2]C)([O]C(=O)c1ccc(F)cc1)[O][Sn]([CH2]C)([CH2]C)[O]C(=O)c1ccc(F)cc1 : > 100 µM
13) Cn1sc2ccccc2c1=S : 28.8 µM
14) Nc1nc(-c2ccc(Cl)cc2)cc(-c2ccccc2)c1-c1nc2ccccc2o1 : > 100 µM
15) O=C(O)c1ccccc1Nc1ccc2nnc(-c3ccncc3)n2n1 : 62 µM
16) c1cc(NC2=NCCO2)c2c(c1)OCO2 : > 100 µM
17) Cc1ccccc1NC(=O)c1ccc([N+](=O)[O-])cc1 : > 100 µM
18) COC1=C(OC)[C@]2(OC)c3c(O)c(OC)c4c(c3O[C@@]23O[C@@H](c2ccccc2)CC=C3C1=O)[C@@H](O)C[C@H](c1ccccc1)O4 : 4.39 µM
19) O=C(NCCCCCCNC(=O)OCc1ccc2c(Cl)cc(Cl)c(O)c2n1)OCc1ccc2c(Cl)cc(Cl)c(O)c2n1 : 3.62 µM
20) O=[N+]([O-])c1cc2c(c([N+](=O)[O-])c1)Nc1ccccc1O2 : 60.4 µM

* * *

System: IGROV1 ovarian
METHOD: NCI tumour cell line growth inhibition, 48 h
VALUE KIND: GI50

1) O=S(=O)(Nc1ccccn1)c1ccc(N=Nc2ccc(O)c3ncccc23)cc1 : 1.35 µM
2) COc1cc2c3c(n(CCCN4CCCC(O)C4)c(=O)c2cc1OC)-c1cc2c(cc1C3=O)OCO2 (stereo not given) : 0.836 µM
3) c1ccc2c3c(ccc2c1)-c1c(ccc2c(NCCCCN4CCCCC4)cccc12)C3 : 2.09 µM
4) Fc1cccc(-c2[nH]nc3nc(Nc4cccnc4)sc23)c1 : 11.7 µM
5) Cc1nc2sc(C(=O)Nc3cccc(Br)c3)c(N)c2cc1C(O)c1ccccc1 (stereo not given) : 1.94 µM
6) Cc1cc2nc(C(Cl)Cl)nc(-c3ccccc3)n2n1 : 5.24 µM
7) COc1cnc2c(c1)C(=O)c1c-2n(CCCNC(C)C)c(=O)c2cc([N+](=O)[O-])ccc12 : 0.115 µM
8) Nc1nc(-c2ccccc2)cc(-c2ccc(Cl)cc2)c1-c1nc2ccccc2o1 : 12.9 µM
9) COC1=C(OC)[C@]2(OC)c3c(O)c(OC)c4c(c3O[C@@]23O[C@@H](c2ccccc2)CC=C3C1=O)[C@@H](O)C[C@H](c1ccccc1)O4 : 0.932 µM
10) Cc1c(-c2nnc(-c3cc(Cl)c(Cl)cc3Cl)o2)nnn1-c1ccnc2c(C(F)(F)F)cccc12 : 27.1 µM

Each recorded value in this set is attributed to PubChem BioAssay (NCI).
